experimental-system: D₁ receptor (Rattus norvegicus)
Construct: probably striatum is meant
Sequence (P18901 whole entry): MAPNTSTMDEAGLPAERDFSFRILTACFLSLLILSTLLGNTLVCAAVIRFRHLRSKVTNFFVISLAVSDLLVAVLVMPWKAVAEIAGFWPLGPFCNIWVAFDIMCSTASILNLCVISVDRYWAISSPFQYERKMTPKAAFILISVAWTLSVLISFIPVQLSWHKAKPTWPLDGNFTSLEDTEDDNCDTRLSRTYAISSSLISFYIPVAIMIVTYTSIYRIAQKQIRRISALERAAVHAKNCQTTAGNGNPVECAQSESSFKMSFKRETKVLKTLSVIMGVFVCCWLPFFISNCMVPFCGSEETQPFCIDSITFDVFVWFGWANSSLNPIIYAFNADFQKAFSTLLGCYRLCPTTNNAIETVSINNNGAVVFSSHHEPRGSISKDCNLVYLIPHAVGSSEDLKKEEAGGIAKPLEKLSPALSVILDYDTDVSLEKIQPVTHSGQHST
test-details: Dopaminergic activity: receptor binding on isolated membranes of rat striated muscle, D1
reported-conditions: read-out: IC₅₀
measurement-label: IC50 (µM)
I only need the number, in µM, no unit after it.

Value wanted: IC50 (D₁ receptor (Rattus norvegicus)) of entry CCCN(CCOc1ccccc1OC)CCc1ccc(O)c(O)c1.Cl [compound A, hydrochloride] 3

---

experimental-system: D₂ receptor (Rattus norvegicus)
Construct: probably striatum is meant
Sequence (P61169 whole entry): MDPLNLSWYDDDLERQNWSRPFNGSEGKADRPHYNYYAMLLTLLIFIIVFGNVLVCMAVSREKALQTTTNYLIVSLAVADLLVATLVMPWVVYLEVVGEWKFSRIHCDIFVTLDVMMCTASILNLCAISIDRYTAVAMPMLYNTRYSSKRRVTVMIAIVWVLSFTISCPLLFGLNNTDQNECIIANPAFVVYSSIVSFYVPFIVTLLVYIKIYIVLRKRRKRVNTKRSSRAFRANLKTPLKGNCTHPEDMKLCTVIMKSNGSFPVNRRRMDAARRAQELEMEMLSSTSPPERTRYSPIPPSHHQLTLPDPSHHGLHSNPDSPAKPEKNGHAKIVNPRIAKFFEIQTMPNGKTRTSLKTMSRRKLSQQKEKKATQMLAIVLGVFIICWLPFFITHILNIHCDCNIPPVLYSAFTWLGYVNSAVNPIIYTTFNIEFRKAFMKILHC
test-details: Dopaminergic activity: receptor binding on isolated membranes of rat striated muscle, D2
reported-conditions: read-out: IC₅₀
measurement-label: pIC50
Would you please state pIC50, meaning minus log10 of the concentration in mol/L, as a bare number?

Can you look up the measured pIC50 of CCCN(CCOc1ccccc1OC)CCc1ccc(O)c(O)c1.Cl [compound A, hydrochloride] for me? 6.52
